So I've got a bunch of compounds here, and I need their residual activity values.
target: Serine/threonine-protein kinase mTOR (Homo sapiens); conditions: at 10 µM
Write the answer as a number in %, unit excluded.

The recorded residual activity for entry "N#Cc1cnc2cnc(NCc3cccnc3)cc2c1Nc1ccc(F)c(Cl)c1" equals 85

compound "CNc1cc2c(Nc3cccc(Br)c3)ncnc2cn1" , residual activity observed: 104

Notebook: "CC(C)n1cnc2/c(=N/c3cccc(Cl)c3)nc(NCCO)[nH]c21" , residual activity read as 96

----------
target: Serine/threonine-protein kinase PAK 2 (Homo sapiens) (UniProt Q13177); conditions: at 10 µM
Sequence (Q13177 whole entry): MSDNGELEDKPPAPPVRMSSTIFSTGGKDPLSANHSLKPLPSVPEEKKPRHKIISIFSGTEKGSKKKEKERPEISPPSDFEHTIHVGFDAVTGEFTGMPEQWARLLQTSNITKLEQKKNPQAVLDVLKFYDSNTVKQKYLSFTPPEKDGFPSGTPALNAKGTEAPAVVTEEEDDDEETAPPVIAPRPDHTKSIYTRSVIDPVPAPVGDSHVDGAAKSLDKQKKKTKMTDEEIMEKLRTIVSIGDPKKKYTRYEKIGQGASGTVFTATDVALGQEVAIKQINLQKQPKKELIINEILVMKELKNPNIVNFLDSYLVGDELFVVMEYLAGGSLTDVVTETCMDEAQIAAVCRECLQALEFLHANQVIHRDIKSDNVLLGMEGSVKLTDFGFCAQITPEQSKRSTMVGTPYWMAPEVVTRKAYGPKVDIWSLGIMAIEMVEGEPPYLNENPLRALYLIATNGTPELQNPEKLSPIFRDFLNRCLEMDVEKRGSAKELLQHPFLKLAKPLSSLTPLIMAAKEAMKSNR
Please respond with reported residual activity for every item in the list.
Express the result in % but write the number alone.

The compound "Nc1ccc2ncnc(NCCc3ccc(Oc4ccccc4)cc3)c2c1" showed residual activity equal to 89

Field residual activity (entry "CC[n+]1c(/C=C/N(C)c2ccccc2)n(-c2ccccc2)c2ccc(-c3nc4ccccc4s3)cc21" ) reads 81

Please fill in: residual activity reported for "c1ccc2c(-c3ccncc3)c[nH]c2c1" = 82

The compound listed as O=C1Nc2ccccc2/C1=C1/Nc2ccccc2/C1=N\OCCC(O)CO (stereo unspecified) has a reported residual activity of 78

Noted for "O=C1Nc2cc(Br)ccc2/C1=C1/Nc2ccccc2/C1=N\O" : its residual activity reads 88

Looking up "CC#CC(=O)Nc1cc2c(Nc3ccc(F)c(Cl)c3)ncnc2cn1" , I see its residual activity listed as 81

GET /value?item= "Cn1cnc2cc3c(Nc4cccc(Br)c4)ncnc3cc21" &field=residual activity returns 90

Measured residual activity of "Cn1cc(/C=C2\C(=O)Nc3ccc(S(N)(=O)=O)cc32)c2ccccc21" : 91

The compound listed as "Cc1cccc(-c2[nH]c(C(C)(C)C)nc2-c2ccc3c(c2)OCO3)n1" shows residual activity equal to 91

For record "COc1cc2ncnc(Nc3ccc(O)c(Br)c3)c2cc1OC" the listed residual activity is 80

Per the record, "c1ccc(-c2n[nH]cc2-c2ccnc3ccccc23)nc1" has residual activity of 88

----------
molecular target: Proto-oncogene tyrosine-protein kinase Src (Homo sapiens); conditions: at 1 µM
What residual activity was measured for each of the following?
Response body: numeric value in %, unit text excluded.

// residual activity value for "COc1ccc(C(=O)Nc2sc3c(c2C(N)=O)CCCC3)cc1OC" : 76

Form: molecule = "CC(C)n1cnc2c(NCc3ccccc3)nc(NCCCO)nc21" ; residual activity = 100

The molecule listed as "O=C(Nc1cccc(Nc2nccc(Nc3cccc(C(F)(F)F)c3)n2)c1)C1CC1" has a reported residual activity of 56

The recorded residual activity for "Cc1cc2ncc(-c3ccccc3)nc2cc1C" is 83

molecule "Oc1ccc(Nc2nc(-c3ccc(Cl)cc3)cs2)cc1" , residual activity observed: 116

Value of measured residual activity for the entry "CC(=O)O/N=C1\C(=C2\C(=O)Nc3cc(Br)ccc32)Nc2ccccc21" : 22

residual activity recorded for this molecule, "COc1ccc(CNc2nc(N(CCO)CCO)nc3c2ncn3C(C)C)cc1" , is 104

The molecule listed as "COc1cc2ncnc(N3CCN(C(=O)Nc4ccc(Oc5ccccc5)cc4)CC3)c2cc1OC" has a reported residual activity of 95

The reported value for "COc1cc2ncnc(Nc3ccc(Oc4ccccc4)cc3)c2cc1OC" in terms of residual activity is 36

Entry under test: "O=c1c2ccccc2[nH]c(=S)n1CCN1CCC(=C(c2ccc(F)cc2)c2ccc(F)cc2)CC1" . Its residual activity was 85

Sample "CC(=O)c1ccc(N2CCOCC2)cc1O" ; residual activity observed: 86

According to the records, this molecule "Oc1ccc(-c2nc(-c3ccc(F)cc3)c(-c3ccncc3)[nH]2)cc1" displays residual activity of 108

Noted for "O=[N+]([O-])c1ccc(-c2nc(-c3ccc(F)cc3)c(-c3ccncc3)[nH]2)cc1" : its residual activity reads 113

Per the records, this molecule ( "Cc1cc(Nc2nc(-c3ccccc3)nc3ccccc23)n[nH]1" ) has residual activity equal to 14

According to the records, this molecule "O=C1NC(=O)/C(=C\c2ccc3nccnc3c2)S1" displays residual activity of 86

Entry "Nc1n[nH]c2nnc(-c3c(-c4ccccc4)nn4ccccc34)cc12" ; residual activity = 103

// sample "COc1cc2ncnc(Nc3ccc(NC(=O)c4ccccc4)cc3)c2cc1OC" , its residual activity was 83

The value of residual activity measured for the molecule "O=C1NC(=O)/C(=C/c2ccc3c(c2)OC(F)(F)O3)S1" turned out to be 91

----------
For each record, write down the corresponding residual activity.
target: Homeodomain-interacting protein kinase 3 (Homo sapiens) (UniProt Q9H422); conditions: at 1 µM
Sequence (Q9H422 whole entry, looked up): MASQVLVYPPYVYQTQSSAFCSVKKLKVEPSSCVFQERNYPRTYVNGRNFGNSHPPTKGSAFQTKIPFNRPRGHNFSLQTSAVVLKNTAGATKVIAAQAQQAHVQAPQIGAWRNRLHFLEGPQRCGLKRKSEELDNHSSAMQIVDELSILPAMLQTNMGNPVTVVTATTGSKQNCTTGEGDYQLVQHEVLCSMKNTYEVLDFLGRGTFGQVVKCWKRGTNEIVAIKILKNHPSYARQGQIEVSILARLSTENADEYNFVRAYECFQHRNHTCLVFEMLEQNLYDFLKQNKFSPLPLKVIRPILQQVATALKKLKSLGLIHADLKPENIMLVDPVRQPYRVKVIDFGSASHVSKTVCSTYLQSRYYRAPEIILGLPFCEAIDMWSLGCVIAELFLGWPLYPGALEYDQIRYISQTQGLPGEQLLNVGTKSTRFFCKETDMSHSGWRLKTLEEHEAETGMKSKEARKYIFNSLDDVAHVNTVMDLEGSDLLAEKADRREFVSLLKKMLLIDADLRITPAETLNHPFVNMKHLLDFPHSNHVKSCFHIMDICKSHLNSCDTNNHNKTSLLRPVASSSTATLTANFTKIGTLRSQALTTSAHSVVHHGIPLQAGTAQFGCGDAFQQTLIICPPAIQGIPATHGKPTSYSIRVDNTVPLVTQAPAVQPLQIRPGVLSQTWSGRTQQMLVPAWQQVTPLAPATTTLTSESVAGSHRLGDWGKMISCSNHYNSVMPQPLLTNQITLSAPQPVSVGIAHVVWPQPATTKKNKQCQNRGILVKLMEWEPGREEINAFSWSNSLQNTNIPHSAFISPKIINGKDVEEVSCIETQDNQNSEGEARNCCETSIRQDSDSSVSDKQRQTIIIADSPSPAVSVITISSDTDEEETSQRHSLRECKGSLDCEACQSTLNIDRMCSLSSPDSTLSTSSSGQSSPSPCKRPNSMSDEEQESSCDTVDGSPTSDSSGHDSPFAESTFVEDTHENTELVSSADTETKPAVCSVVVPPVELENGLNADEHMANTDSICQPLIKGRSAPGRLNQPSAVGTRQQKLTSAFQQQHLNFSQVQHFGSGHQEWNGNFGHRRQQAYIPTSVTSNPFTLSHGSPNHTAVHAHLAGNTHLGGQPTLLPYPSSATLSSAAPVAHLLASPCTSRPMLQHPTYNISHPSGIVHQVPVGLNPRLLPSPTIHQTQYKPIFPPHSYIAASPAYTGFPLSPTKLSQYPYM
Write the quantity with the unit trailing the number.

The compound listed as "CC#CC(=O)Nc1cc2c(Nc3ccc(F)c(Cl)c3)ncnc2cn1" has a reported residual activity of 88%

Record "C[C@@H](N)[C@H]1CC[C@H](C(=O)Nc2ccncc2)CC1" , field residual activity: 91%

Form: compound = "Ic1cccc(CSc2nnc(-c3ccncc3)o2)c1" ; residual activity = 96%

Reported residual activity of "Cn1cc(/C=C2\C(=O)Nc3ccc(S(N)(=O)=O)cc32)c2ccccc21" : 85%

So for "Cc1ccc(S(=O)(=O)/C=C/C#N)cc1" , the logged residual activity turned out to be 103%

Entry "N#C/C(=C(\N)Sc1ccc(N)cc1)c1ccccc1C(F)(F)F" , residual activity reported as 93%

residual activity measured on "O=C1c2ccccc2-[n+]2ccc3c([nH]c4ccccc43)c21" = 77%

Entry "Cc1cc2ncc(-c3ccccc3)nc2cc1C" — recorded residual activity = 105%

For this compound ( "COc1cc2ncnc(Nc3ccc(NC(=O)c4ccccc4)cc3)c2cc1OC" ), measured residual activity is 101%

Just so you know, measured residual activity for "O=C1NC(=O)c2cc(Nc3ccc(F)cc3)c(Nc3ccc(F)cc3)cc21" came out at 97%

Sure, the documented residual activity for "CCC(=O)Nc1ccc2ncnc(Nc3cccc(Br)c3)c2c1" is 92%

Given item "Cc1nc2cc3nc(-c4cccs4)cnc3cc2n1C" , the value recorded as its residual activity is 92%

// "COc1cc2ncnc(Nc3ccc(Oc4ccccc4)cc3)c2cc1OC" : residual activity value = 94%

compound "COc1cccc(-c2cc(=O)c3ccccc3o2)c1N" , residual activity observed: 99%

// field: residual activity; key: "c1ccc(-c2n[nH]c3c2oc2ccccc23)cc1" ; value = 92%

Measured residual activity of "COc1ccc(C(=O)Nc2sc3c(c2C(N)=O)CCCC3)cc1OC" : 94%

Form: compound = "CC[n+]1c(/C=C/N(C)c2ccccc2)n(-c2ccccc2)c2ccc(-c3nc4ccccc4s3)cc21" ; residual activity = 99%

For record "COc1cc2ncc(-c3ccccc3)nc2cc1OC" the listed residual activity is 100%

Item: "Cn1cnc2cc3c(Nc4cccc(Br)c4)ncnc3cc21" | residual activity: 95%

Record "CN(C)CCCn1cc(C2=C(c3c[nH]c4ccccc34)C(=O)NC2=O)c2ccccc21" , field residual activity: 87%

Given item "Cc1ccc(NC2=CC(=O)c3sc(C)nc3C2=O)cc1" , the value recorded as its residual activity is 92%

residual activity reported for this compound "O=C1Nc2ccc(Br)cc2/C1=C\c1cc2c([nH]1)CCCC2" : 97%

Looking up "CCN(CC)C(=O)c1ccc(Nc2nc(OCC3CCCCC3)c3nc[nH]c3n2)cc1" , I see its residual activity listed as 99%

The value of residual activity measured for the compound "O=C1NC(=O)c2c1c1c3ccccc3[nH]c1c1[nH]c3cc(Br)ccc3c21" turned out to be 92%

Value of residual activity reported for the compound "CC(C)n1cnc2c(NCc3ccccc3)nc(NCCCO)nc21" is 96%

Notebook: "O=c1c2ccccc2[nH]c(=S)n1CCN1CCC(=C(c2ccc(F)cc2)c2ccc(F)cc2)CC1" , residual activity read as 100%

Consider "Oc1ccc(-c2nc(-c3ccc(F)cc3)c(-c3ccncc3)[nH]2)cc1" . Its measured residual activity is 106%

Query "CO[C@H]1C[C@@H]2CC[C@@H](C)[C@@](O)(O2)C(=O)C(=O)N2CCCC[C@H]2C(=O)O[C@H]([C@H](C)C[C@@H]2CC[C@@H](O)[C@H](OC)C2)CC(=O)[C@H](C)/C=C(\C)[C@@H](O)[C@@H](OC)C(=O)[C@H](C)C[C@H](C)/C=C/C=C/C=C/1C" yields residual activity of 91%

"Nc1ccc2ncnc(NCCc3ccc(Oc4ccccc4)cc3)c2c1" has a reported residual activity of 92%

Quick note, residual activity for "COc1ccc(OC)c2c(=S)c3ccccc3[nH]c12" landed at 99%

Record "c1ccc(-c2n[nH]cc2-c2ccnc3ccccc23)nc1" , field residual activity: 100%

"O=C(O)c1ccc2c3c1cccc3c(=O)n1c3ccccc3nc21" has a reported residual activity of 101%

residual activity reported for this compound "c1ccc2c(-c3ccncc3)c[nH]c2c1" : 95%

Reported residual activity for "NC(=O)c1ccc2[nH]c(-c3ccc(Oc4ccc(Cl)cc4)cc3)nc2c1" was 92%

Briefly, residual activity measured for "CC(=O)c1ccc(N2CCOCC2)cc1O" : 95%
